# Method: qHTS assay to identify small molecule agonists of the sonic hedgehog signaling (Shh) pathway - cell viability counter screen (AID 1259366); note: nearly all actives have a fitted effect of over 50% in size
# Test context: NIH/3T3 Gli1-Luc viability, CellTiter-Fluor, 24 h; series mostly up to 92.4 µM
Records with an inconclusive call do not appear. Calls of active or inactive are those of the source. Calls come from the whole dose curve; as a rule, active = well fitted cell-killing curve with a large enough effect in the repeat runs; inconclusive = weak or mixed curves, or effect the other way; inactive = flat fitted curve, though single readings scatter.
Select the matching outcome among t = active, f = inactive

Give the logged outcome of this assay for the following compound: CC(=O)Nc1ccc(N=Nc2cc(C)ccc2O)cc1 f

Give the logged outcome of this assay for the following compound: CCC(C)(C)c1ccc(CC(C)CN2C[C@@H](C)O[C@@H](C)C2)cc1 (stereo partly specified) f

Give the logged outcome of this assay for the following compound: Cc1ccc(S(=O)(=O)C(I)I)cc1 t

Give the logged outcome of this assay for the following compound: CCOC(=O)[C@H](C)O f

Give the logged outcome of this assay for the following compound: C[C@H]1O[C@@H](O[C@H]2CC[C@@]3(C)[C@H](CC[C@@H]4[C@@H]3C[C@@H](O)[C@]3(C)[C@@H](C5=CC(=O)OC5)CC[C@]43O)C2)C[C@H](O)[C@@H]1O[C@H]1C[C@H](O)[C@H](O[C@H]2C[C@H](O)[C@H](O[C@@H]3O[C@H](CO)[C@@H](O)[C@H](O)[C@H]3O)[C@@H](C)O2)[C@@H](C)O1 f

Give the logged outcome of this assay for the following compound: CCCCCCCCCCCCCCCCC(C(=O)O)C(O)(CC(=O)O)C(=O)O (stereo unspecified) f

Give the logged outcome of this assay for the following compound: COc1cc(OC)nc(NC(=O)NS(=O)(=O)Nc2ccccc2C(=O)N(C)C)n1 f

Give the logged outcome of this assay for the following compound: S=C1NC=NC2N=CNC12 (stereo unspecified) f

Give the logged outcome of this assay for the following compound: O=C1OCc2ccccc21 f

Give the logged outcome of this assay for the following compound: C=Cc1ccncc1 f

Give the logged outcome of this assay for the following compound: C=C1CC[C@H]2O[C@]2(C)CC[C@@H]2[C@@H]1CC2(C)C f

Give the logged outcome of this assay for the following compound: CCc1c(C)cc(N)c(CC)c1N f

Give the logged outcome of this assay for the following compound: C=Cc1ccc(O)c(OC)c1 t

Give the logged outcome of this assay for the following compound: CC(C)(C)c1cc(CCC(=O)OCCSCCOC(=O)CCc2cc(C(C)(C)C)c(O)c(C(C)(C)C)c2)cc(C(C)(C)C)c1O f

Give the logged outcome of this assay for the following compound: CN1CCN(CCCN2c3ccccc3Sc3ccc(Cl)cc32)CC1 t

Give the logged outcome of this assay for the following compound: CC1=C(/C=C/C(C)=C/C=C/C(C)=C\C(=O)O)C(C)(C)CCC1 f

Give the logged outcome of this assay for the following compound: CCC1(C)C(=O)N(Cl)C(=O)N1Cl (stereo unspecified) f

Give the logged outcome of this assay for the following compound: C=COCCCC f

Give the logged outcome of this assay for the following compound: CCn1c2ccccc2c2ccccc21 f

Give the logged outcome of this assay for the following compound: N#CCCOCCC#N f

Give the logged outcome of this assay for the following compound: CC(=O)CC(N)=O f

Give the logged outcome of this assay for the following compound: CC1CCC(C(C)(C)O)CC1 (stereo unspecified) f

Give the logged outcome of this assay for the following compound: CC(C=O)c1ccccc1 (stereo unspecified) f

Give the logged outcome of this assay for the following compound: COc1c(Br)cc(Br)c(C)c1Br f

Give the logged outcome of this assay for the following compound: O=C(Nc1ccc([N+](=O)[O-])cc1)Nc1ccc([N+](=O)[O-])cc1 (tested in a mixture with another compound) f

Give the logged outcome of this assay for the following compound: C=CC(=O)OCC(Br)CBr (stereo unspecified) f

Give the logged outcome of this assay for the following compound: O=C1C=CC(=O)N1c1cccc(N2C(=O)C=CC2=O)c1 t

Give the logged outcome of this assay for the following compound: Cc1ccc(C=O)cc1 f

Give the logged outcome of this assay for the following compound: CC/C=C(\C)C=O f

Give the logged outcome of this assay for the following compound: CCC(=O)OC/C=C(\C)CCC=C(C)C f

Give the logged outcome of this assay for the following compound: O=[N+]([O-])c1ccc(O)c2ncccc12 t

Give the logged outcome of this assay for the following compound: CC1(C)[C@H](C(=O)OCc2cccc(Oc3ccccc3)c2)[C@@H]1C=C(Cl)Cl f

Give the logged outcome of this assay for the following compound: Oc1ccc2c(c1)CCC2 f

Give the logged outcome of this assay for the following compound: CS(=O)(=O)c1ccc([C@@H](CC2CCCC2)C(=O)Nc2cnccn2)cc1Cl t

Give the logged outcome of this assay for the following compound: O=c1cc[nH]cc1 f

Give the logged outcome of this assay for the following compound: CCOC(=O)C1=NN(c2ccc(Cl)cc2Cl)C(C)(C(=O)OCC)C1 (stereo unspecified) f

Give the logged outcome of this assay for the following compound: Cc1cc(F)ccc1-c1cc(N2CC[C@@H](O)[C@H]2CO)ncc1N(C)C(=O)C(C)(C)c1cc(C(F)(F)F)cc(C(F)(F)F)c1 t

Give the logged outcome of this assay for the following compound: CCCCCN=C(N)N/N=C/c1c[nH]c2ccc(OC)cc12 t

Give the logged outcome of this assay for the following compound: O=C1OC(O)C(C(Cl)Cl)=C1Cl (stereo unspecified) t

Give the logged outcome of this assay for the following compound: C=C(C)C1CCC(C)CC1O (stereo unspecified) f

Give the logged outcome of this assay for the following compound: c1ccc2cc3c4ccccc4c4ccccc4c3cc2c1 f

Give the logged outcome of this assay for the following compound: Clc1cccc(Cl)n1 f

Give the logged outcome of this assay for the following compound: c1ccc2occc2c1 f

Give the logged outcome of this assay for the following compound: Nc1ccc(N)c([N+](=O)[O-])c1 t

Give the logged outcome of this assay for the following compound: Cc1ccc2n[nH]nc2c1 f

Give the logged outcome of this assay for the following compound: Cc1ccc(C2OC[C@@H]3OC(c4ccc(C)cc4)O[C@H]([C@H](O)CO)[C@@H]3O2)cc1 (stereo partly specified) f

Give the logged outcome of this assay for the following compound: C/C(=N\[Si](C)(C)C)O[Si](C)(C)C f

Give the logged outcome of this assay for the following compound: NCc1cccc(C2CCN(C(=O)c3ccc(C#Cc4ccccc4F)o3)CC2)c1 t

Give the logged outcome of this assay for the following compound: NC(=O)c1ccccc1Cl f

Give the logged outcome of this assay for the following compound: Cc1cc(Br)ccc1NC(=O)CCl t

Give the logged outcome of this assay for the following compound: CCCCCCCCOC(=O)c1cc(O)c(O)c(O)c1 t
